- measurement_target: cruzain, from T. cruzi (Trypanosoma cruzi, UniProt P25779)
- Sequence (P25779 123-337 limits assumed): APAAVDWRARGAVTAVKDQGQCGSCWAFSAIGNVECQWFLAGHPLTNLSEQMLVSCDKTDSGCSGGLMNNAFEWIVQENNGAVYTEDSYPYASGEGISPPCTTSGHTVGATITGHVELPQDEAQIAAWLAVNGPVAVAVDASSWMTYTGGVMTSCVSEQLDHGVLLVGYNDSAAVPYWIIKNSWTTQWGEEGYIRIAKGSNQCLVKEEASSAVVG
- method_description: Inhibition of cruzain, as for cathepsin L
- Format: biochemical
- study_conditions: values without asterisk
Recorded k/KI (kirr/KI), one value per entry.

Solved entries:
compound	measurement_target	k/KI (kirr/KI)
CC(=O)N[C@@H](CC(C)C)C(=O)N[C@@H](CC(C)C)C(=O)N[C@H](/C=C/S(=O)(=O)c1ccccc1)CCS(C)(=O)=O	cruzain, from T. cruzi (Trypanosoma cruzi, UniProt P25779)	104,000 M^-1 sec^-1
O=C(N[C@H](/C=C/S(=O)(=O)c1ccccc1)CCc1ccccc1)C(Cc1ccccc1)NC(=O)N1CCOCC1 (stereo partly drawn)	cruzain, from T. cruzi (Trypanosoma cruzi, UniProt P25779)	134,000 M^-1 sec^-1
CC(C)C[C@H](NC(=O)N1CCOCC1)C(=O)N[C@H](/C=C/S(=O)(=O)c1ccccc1)CCc1ccccc1	cruzain, from T. cruzi (Trypanosoma cruzi, UniProt P25779)	213,000 M^-1 sec^-1

Requested read-out: k/KI (kirr/KI). Entry: Br.N=C(N)NCCC[C@@H](/C=C/S(=O)(=O)c1ccccc1)NC(=O)[C@H](Cc1ccccc1)NC(=O)N1CCOCC1
91,400 M^-1 sec^-1

Now this one: CSCC[C@@H](/C=C/S(=O)(=O)c1ccccc1)NC(=O)[C@H](CC(C)C)NC(=O)[C@H](CC(C)C)NC(C)=O
110,000 M^-1 sec^-1
